Hey, just so you know, these numbers are from PubChem BioAssay (NCI).

I'd be grateful if you could share measured TGI for these entries.
- System: SK-MEL-28 melanoma
- measurement_protocol: NCI tumour cell line growth inhibition, 48 h

Qu. // fetch TGI; item: C=CC1CC12C(=O)C1OC2(C)C2C(=O)c3c(O)ccc(O)c3C(=O)C12 (stereo not given) ; system: SK-MEL-28 melanoma
Ans. 25.4 µM

Qu. // fetch TGI; item: CN(C)Cc1cc(O)c(O)c(CN(C)C)c1 ; system: SK-MEL-28 melanoma
Ans. > 100 µM

Qu. // fetch TGI; item: CC(=O)OC1(C)C(=O)OC1(C)C(C)=O (stereo not given) ; system: SK-MEL-28 melanoma
Ans. > 100 µM

Qu. // fetch TGI; item: O=c1[nH]nc(-c2ccccc2)n1/N=C/c1c(O)ccc2ccccc12 ; system: SK-MEL-28 melanoma
Ans. > 100 µM

Qu. // fetch TGI; item: Cc1ccnc2[nH]c(-c3ccccc3)cc(=O)c12 ; system: SK-MEL-28 melanoma
Ans. > 100 µM
